Assignment: determine reported normalized growth for the given compounds.
experiment: chemical genetic growth profiling, strain panel (AID 1159580);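 note: tested at 20 µM; growth read once vehicle control cultures reached saturation at 30 °C; 1 = growth at the plate median or of vehicle wells; lower values mean less growth of the strain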; details: S. cerevisiae deletion strains, growth OD, locus YNL207W, strain RIO2, active compounds read low
The campaign covered roughly 5,500 compounds. About 2,000 (36%) were called active. Not shown: some 18% with an inconclusive outcome. This is one part of the list.
Would you mind answering with just the numeric figure?

[Q] For the compound CC(C)(C)c1ccc(C(=N)SC(C(=O)C(F)(F)F)c2ccccc2)cc1 (stereo unspecified) , give its measured normalized growth value.
[A] 0.99

[Q] For the compound Cc1ccc(Nc2ccnc3cc(Cl)ccc23)cc1F , give its measured normalized growth value.
[A] 0.997

[Q] For the compound Cc1ccc(S(=O)(=O)NC(=O)Nc2ccc(Sc3ccccc3)nc2Sc2ccccc2)cc1 , give its measured normalized growth value.
[A] 0.966

[Q] For the compound O=C(Nc1cccc(C(F)(F)F)c1)c1cncc(C#Cc2ccccc2)c1 , give its measured normalized growth value.
[A] 0.99

[Q] For the compound COc1cccc(C2CCN(C(=O)c3cccc4ccccc34)CC2)c1 , give its measured normalized growth value.
[A] 0.997

[Q] For the compound Cc1cc(C(=O)NNS(=O)(=O)c2ccc(F)c(Cl)c2)nn1-c1c(Cl)cc(Cl)cc1Cl , give its measured normalized growth value.
[A] 0.986
